tested on: NCI-H23; test: NCI tumour cell line growth inhibition, 48 h
Calls of active or inactive are those of the source. Cut-off read from the data, not from the text of the source: active = GI50 up to about 1.1 µM and inactive = higher.
Readings of GI50 for the listed compounds
test-readout: GI50

- Cc1nn(C(=O)c2ccccc2O)c2c1C(c1ccc(O)cc1O)SC(=N)N2 (stereo not given): 3.98 µM (inactive)
- COc1ccc2c(c1)[n+]([O-])c(-c1ccc([N+](=O)[O-])cc1)c(N)[n+]2[O-]: 88.5 µM (inactive)
- C/C(=N\NC(=S)N/N=C(\C)c1ccccn1)c1ccccn1: 4.6 µM (inactive)
- Cc1nc2c(nc1C)-c1[nH]c3c(c1C(=O)C2=O)CCCC3=O: 1.93 µM (inactive)
- CCCN(CCC)c1c([N+](=O)[O-])cc(C(N)=O)cc1[N+](=O)[O-]: > 100 µM (inactive)
- NCc1ccc(O)c(O)c1O: 28.1 µM (inactive)
- O=C1c2ccccc2-c2nc3ccncc3n21: > 100 µM (inactive)
- COc1cc2c(cc1OC)-c1cc3ccccc3c(=O)n1CC2: 37.5 µM (inactive)
- COc1cccc(C2c3cc4c(cc3OC(Nc3ccccc3)C2C)OCO4)c1OC (stereo not given): 42 µM (inactive)
- O=C1C=CC=CC2CC=C[C@@H](O)C12 (stereo not given in full): > 10 µM (inactive)
